Where these numbers come from: patent US11472814B2

pIC50 values for the compounds below.
biological target: BRD4-2 (Homo sapiens); construct: (contract assay service); assay: Bromodomain protein inhibition IC50, binding domain 2 of BRD4 (Reaction Biology Corp.); conditions: 10-point curve
pIC50: −log10 of the molar value. Counter-ions that a name gives are not always drawn.

| Compound | pIC50 |
| --- | --- |
| Cc1nn(-c2ccnc(Nc3ccc(-c4csc5c(=O)cc(N6CCOCC6)oc45)cc3)n2)cc1CN1CC(O)C1 | < 4.30 |
| Cc1nn(-c2ccnc(Nc3ccc(-c4csc5c(=O)cc(N6CCOCC6)oc45)cc3)n2)cc1CN1CCC1 | 5.30 to 6.00 |
| Cc1nn(-c2ccnc(Nc3ccc(-c4csc5c(=O)cc(N6CCNCC6)oc45)cc3)n2)cc1CN1CC(O)C1 [Compound 2, dihydrochloride] | < 4.30 |
| Cc1nn(-c2ccnc(Nc3ccc(-c4csc5c(=O)cc(N6CCNCC6)oc45)cc3)n2)cc1CN1CCC1 [Compound 4, dihydrochloride] | < 4.30 |
